Data provenance: patent US20080177067A1

method.description: Water content measured by KF titration
Assay type: physicochemical
observable: water content, as measured by KF titration

>  <compound>
Cc1nc2n(c(=O)c1CCN1CCC(c3noc4cc(F)ccc34)CC1)CCCC2O (stereo not shown) [Form II]

>  <experimental.value>
about 0.5%

$$$$
>  <compound>
Cc1nc2n(c(=O)c1CCN1CCC(c3noc4cc(F)ccc34)CC1)CCCC2O (stereo not shown) [Form I]

>  <experimental.value>
about 0.5%

$$$$
